Entries with reported Ki on 5-HT7 receptor (Homo sapiens, UniProt P34969)
Sequence (P34969 1-432 limits assumed): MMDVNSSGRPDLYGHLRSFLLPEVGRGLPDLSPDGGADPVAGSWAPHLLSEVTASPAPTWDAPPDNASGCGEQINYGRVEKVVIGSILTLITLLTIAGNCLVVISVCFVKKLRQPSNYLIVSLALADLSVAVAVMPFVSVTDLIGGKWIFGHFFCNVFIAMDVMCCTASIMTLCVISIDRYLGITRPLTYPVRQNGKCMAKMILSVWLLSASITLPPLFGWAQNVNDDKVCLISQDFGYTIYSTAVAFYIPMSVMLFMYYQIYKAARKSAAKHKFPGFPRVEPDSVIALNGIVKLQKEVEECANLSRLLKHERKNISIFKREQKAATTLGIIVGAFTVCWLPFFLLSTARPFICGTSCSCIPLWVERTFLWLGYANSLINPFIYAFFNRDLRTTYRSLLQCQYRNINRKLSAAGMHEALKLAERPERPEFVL
Write down the numeric answer in nM and omit the unit.

Completed entries (count: 3):
COc1ccc2[nH]cc(CCNc3nc(N)nc(NCCc4ccccc4)n3)c2c1.Cl	629
Cl.Nc1nc(NCCNc2ccc(F)cc2)nc(NCCc2c[nH]c3ccccc23)n1	18
Cl.Nc1nc(NCCc2c[nH]c3ccccc23)nc(Nc2ccc(F)cc2)n1	2050

# input If you can, please state the reported Ki value of Cl.Nc1nc(NCCNc2cccc(F)c2)nc(NCCc2c[nH]c3ccccc23)n1 .
# output 24

====

recorded endpoint: melting point

Completed entries (count: 5):
Cl.Nc1nc(NCCNc2ccccc2F)nc(NCCc2c[nH]c3ccccc23)n1 [Compound 10]	94 to 97 °C
COc1cccc(NCCNc2nc(N)nc(NCCc3c[nH]c4ccccc34)n2)c1.Cl [Compound 14]	140 to 143 °C
Cl.Nc1nc(NCCc2ccccc2)nc(NCCc2c[nH]c3ccc(Cl)cc23)n1 [Compound 4]	106 to 108 °C
COc1ccc2[nH]cc(CCNc3nc(N)nc(NCCc4ccccc4)n3)c2c1.Cl [Compound 5]	111 to 115 °C
Cl.Nc1nc(NCCc2ccccc2)nc(NCCc2c[nH]c3ccc(Br)cc23)n1 [Compound 3]	82 to 85 °C

# input If you can, please state the reported melting point value of Cl.Nc1nc(NCCc2c[nH]c3ccccc23)nc(NCCn2c(C(F)(F)F)nc3ccccc32)n1 [Compound 19] .
# output 108 to 110 °C

# input If you can, please state the reported melting point value of Cl.Nc1nc(NCCNc2cccc(F)c2)nc(NCCc2c[nH]c3ccccc23)n1 [Compound 11] .
# output 74 to 79 °C

# input If you can, please state the reported melting point value of Cl.Nc1nc(NCCNc2cccc(Cl)c2)nc(NCCc2c[nH]c3ccccc23)n1 [Compound 8] .
# output 77 to 82 °C

====

Target: D2 receptor (Homo sapiens, UniProt P14416)
Construct: host or cells: cell membranes from cultured cells
Sequence (P14416 whole entry): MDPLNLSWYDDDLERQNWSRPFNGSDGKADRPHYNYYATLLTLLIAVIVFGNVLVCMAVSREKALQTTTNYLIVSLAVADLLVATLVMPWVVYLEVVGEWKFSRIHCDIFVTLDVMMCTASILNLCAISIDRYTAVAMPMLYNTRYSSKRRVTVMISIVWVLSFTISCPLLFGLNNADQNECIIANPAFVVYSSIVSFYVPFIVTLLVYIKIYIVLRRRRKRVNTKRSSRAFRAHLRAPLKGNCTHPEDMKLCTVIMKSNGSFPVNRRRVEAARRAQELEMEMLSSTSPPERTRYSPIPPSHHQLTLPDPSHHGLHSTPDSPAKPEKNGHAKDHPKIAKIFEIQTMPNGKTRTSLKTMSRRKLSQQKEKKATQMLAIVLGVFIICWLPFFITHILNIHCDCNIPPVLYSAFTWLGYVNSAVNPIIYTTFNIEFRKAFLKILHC
Test: Radioligand binding assay, D2 receptor
Settings: mean ± SD, triplicate at 7 concentrations, Cheng-Prusoff; read-out: Affinity Ki D2R
Description: The affinity of the studied compounds to 5-HT1A, 5-HT2A, 5-HT6, 5-HT7, and D2 receptors was evaluated by a radioligand assay, as reported previously (Table 1). Each compound was tested in triplicate at seven concentrations (from 0.1 nM to 100 µM). Inhibition constants (Ki) were calculated from the Cheng–Prusoff equation [23]. The cell culture, cell membranes, and radioligand binding assays were performed in accordance with standard protocols.
recorded endpoint: Ki (µM)
Write down the numeric answer in µM and omit the unit.

Cl.Nc1nc(NCCc2c[nH]c3ccccc23)nc(Nc2cccc(Cl)c2)n1 [Compound 20]	2.27

# input If you can, please state the reported Ki value of Cl.Nc1nc(NCCc2c[nH]c3ccccc23)nc(Nc2ccc(F)cc2)n1 [Compound 21] .
# output 7.03

# input If you can, please state the reported Ki value of Cl.Nc1nc(NCCc2c[nH]c3ccccc23)nc(NCCN2C(=O)c3ccccc3C2=O)n1 [Compound 16] .
# output 13.3

# input If you can, please state the reported Ki value of Cl.Nc1nc(NCCNc2ccccc2Cl)nc(NCCc2c[nH]c3ccccc23)n1 [Compound 7] .
# output 4.29

# input If you can, please state the reported Ki value of Cl.Nc1nc(NCCNc2ccc(F)cc2)nc(NCCc2c[nH]c3ccccc23)n1 [Compound 12] .
# output 3

# input If you can, please state the reported Ki value of COc1cccc(NCCNc2nc(N)nc(NCCc3c[nH]c4ccccc34)n2)c1.Cl [Compound 14] .
# output 36

# input If you can, please state the reported Ki value of Cl.Nc1nc(NCCNc2ccccc2F)nc(NCCc2c[nH]c3ccccc23)n1 [Compound 10] .
# output 20.4

# input If you can, please state the reported Ki value of Cl.Nc1nc(NCCNc2cccc(Cl)c2)nc(NCCc2c[nH]c3ccccc23)n1 [Compound 8] .
# output 1.24

# input If you can, please state the reported Ki value of Cl.Nc1nc(NCCNc2cccc(F)c2)nc(NCCc2c[nH]c3ccccc23)n1 [Compound 11] .
# output 13.8

# input If you can, please state the reported Ki value of Cl.Nc1nc(NCCc2ccccc2)nc(NCCc2c[nH]c3ccc(Cl)cc23)n1 [Compound 4] .
# output 14.5
